- tgt: rat MCH-1 (Rattus norvegicus)
- Sequence (P97639 whole entry): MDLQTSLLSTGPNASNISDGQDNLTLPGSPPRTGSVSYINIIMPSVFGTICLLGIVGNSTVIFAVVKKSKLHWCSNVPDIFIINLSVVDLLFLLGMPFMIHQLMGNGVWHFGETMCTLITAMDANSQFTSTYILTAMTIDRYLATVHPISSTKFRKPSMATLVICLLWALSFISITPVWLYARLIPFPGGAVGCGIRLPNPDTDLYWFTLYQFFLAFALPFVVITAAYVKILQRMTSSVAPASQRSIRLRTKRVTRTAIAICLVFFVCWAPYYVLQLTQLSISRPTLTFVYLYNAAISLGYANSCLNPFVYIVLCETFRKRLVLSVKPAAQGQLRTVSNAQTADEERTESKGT
- assayDetails: Radioligand binding assay at cloned rat MCH1 receptor ([3H] Compound A)
- Set-up: host or cells: Peak rapid 293 (Peakr293) cells, transient calcium phosphate transfection, membranes
- setupConditions: cloned rat MCH1 receptor, membranes from Peakr293 cells, 0.08 nM [3H] Compound A; read-out: Ki (nM) rMCH1
endpointLabel: Ki (nM)

Some molecules with known Ki results, for comparison:
* CC(=O)c1cccc(OC(CCN2CCC(c3cccc(NC(=O)C(C)C)c3)CC2)c2ccc(Br)cc2)c1 (centres unmarked) | 9.3
* CC(C)C(=O)Nc1cccc(C2CCN(CC[C@H](NC(=O)c3ccco3)c3ccccc3)CC2)c1 | 19.2
* Cc1ccc(OCCCCN2CCC(c3cccc(NC(=O)C(C)C)c3)CC2)cc1C | 204

1: CC(C)C(=O)Nc1cccc(C2CCN(CCC(Oc3ccc(Br)cc3)c3ccc(Br)cc3)CC2)c1 (centres unmarked)
2: CC(C)C(=O)Nc1cccc(C2CCN(Cc3ccc(-c4ccccc4)cc3)CC2)c1
3: CC(C)C(=O)Nc1cccc(C2CCN(CCCOc3ccc(Br)cc3)CC2)c1
4: Cc1onc(-c2ccccc2)c1C(=O)OCCCCCCN1CCC(c2cccc(NC(=O)C(C)C)c2)CC1
5: COc1ccc(OC(CCN2CCC(c3cccc(NC(=O)C(C)C)c3)CC2)c2ccc(Br)cc2)cc1 (centres unmarked)
Number of molecules to sort: 5. Sort criterion: Ki, ascending. Please list the labels in the order you were asked to rank them.
5, 1, 3, 4, 2
(5: 3 nM, 1: 7.8 nM, 3: 13.3 nM, 4: 40.1 nM, 2: 77.7 nM)
